The origin of these recorded values is patent US10590193.

# MEASURED TARGET: T1, human PlGF (human, UniProt P49763)
# T1 chain: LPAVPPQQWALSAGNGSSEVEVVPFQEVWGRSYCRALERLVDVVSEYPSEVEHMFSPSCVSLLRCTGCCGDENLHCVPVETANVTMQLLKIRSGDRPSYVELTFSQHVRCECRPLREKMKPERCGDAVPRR
# EXPERIMENT DESCRIPTION: SPR, pH 5

BINDER: 511-min (antibody, V domains shown) VH: EVQLVESGGGLVQPGGSLRLSCAASGFSLNTYYMNWVRQAPGKGLEWVSIIAPDDTTYYASWAKSRFTISRDNSKNTLYLQMNSLRAEDTAVYYCAKSGDTTAWGADIWGQGTLVTVSS VL: EIVMTQSPSTLSASVGDRVIITCQASQSINIWCSWYQQKPGKAPKLLIYRASTLASGVPSRFSGSGSGAEFTLTISSLQPDDFATYYCQANYAYSAGYGAAFGQGTKLTVLG
binding result: no binding

BINDER: 509-maxII (antibody, V domains shown) VH: EVQLVESGGGLVQPGGSLRLSCTASGFSLSSYYMSWVRQAPGKGLEWVGILDYVGDTDYASWAKGRFTISKDASKNTVYLQMNSLRAEDTAVYYCARTDDSRGWGLNIWGQGTLVTVSS VL: EIVMTQSPSTLSASVGDRVIITCQASQNIRIWLSWYQQKPGKAPKLLIYKASTLESGVPSRFSGSGSGTEFTLTISSLQPDDFATYYCQNNAHYSTNGGTFGQGTKLTVLG
binding result: no binding

BINDER: 567-min (antibody, V domains shown) VH: EVQLVESGGGLVQPGGSLRLSCAASGFSLSDYYMCWVRQAPGKGLEWVSCLDYFGSTDDASWAKGRFTISRDNSKNTLYLQMNSLRAEDTAVYYCAKTDDSRGWGLNIWGQGTLVTVSS VL: EIVMTQSPSTLSASVGDRVIITCQADQSIYIWLSWYQQKPGKAPKLLIYKASTLESGVPSRFSGSGSGAEFTLTISSLQPDDFATYYCQNNAHYSTNGGTFGQGTKLTVLG
binding result: no binding
